Data credit: ChEMBL document CHEMBL1138738

experimental-system: UniProt P31421
Sequence (P31421 whole entry): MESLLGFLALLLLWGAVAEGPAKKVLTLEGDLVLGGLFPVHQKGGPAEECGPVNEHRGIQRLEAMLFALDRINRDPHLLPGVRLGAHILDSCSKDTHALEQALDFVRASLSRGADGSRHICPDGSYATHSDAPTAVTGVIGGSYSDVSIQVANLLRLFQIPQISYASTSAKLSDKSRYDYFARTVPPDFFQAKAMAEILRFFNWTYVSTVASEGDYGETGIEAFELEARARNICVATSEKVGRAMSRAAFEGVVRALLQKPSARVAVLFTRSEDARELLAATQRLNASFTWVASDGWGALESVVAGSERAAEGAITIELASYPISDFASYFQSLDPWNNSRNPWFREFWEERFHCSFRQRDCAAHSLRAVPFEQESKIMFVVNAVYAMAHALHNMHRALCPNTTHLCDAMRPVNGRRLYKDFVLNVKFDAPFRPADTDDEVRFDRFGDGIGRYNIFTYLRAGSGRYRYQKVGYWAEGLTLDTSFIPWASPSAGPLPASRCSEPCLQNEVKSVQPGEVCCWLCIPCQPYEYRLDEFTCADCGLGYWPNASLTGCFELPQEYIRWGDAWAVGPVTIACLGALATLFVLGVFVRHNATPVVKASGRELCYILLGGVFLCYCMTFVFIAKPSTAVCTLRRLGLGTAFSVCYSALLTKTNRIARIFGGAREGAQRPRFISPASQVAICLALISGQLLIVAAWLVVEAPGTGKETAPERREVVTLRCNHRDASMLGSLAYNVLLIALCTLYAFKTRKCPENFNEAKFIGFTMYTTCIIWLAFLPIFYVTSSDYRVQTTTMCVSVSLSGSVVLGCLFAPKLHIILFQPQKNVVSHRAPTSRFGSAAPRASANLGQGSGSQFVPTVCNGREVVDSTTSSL
pKi: −log10 of the molar value.
Classify by measured pKi: True if it is equal to or exceeds 8, False if it is smaller.

> print(dat)
                  compound.structure.string  classification
1  N[C@]1(C(=O)O)[C@H]2[C@@H](C[C@H]1OCc1ccc(Cl)cc1)[C@]2(F)C(=O)O            True
2  N[C@]1(C(=O)O)[C@H]2[C@@H](C[C@H]1OCc1ccc(Cl)c(F)c1)[C@]2(F)C(=O)O            True
3  Cc1cccc(CO[C@@H]2C[C@@H]3[C@H]([C@]2(N)C(=O)O)[C@@]3(F)C(=O)O)c1            True
4  CO[C@@H]1C[C@@H]2[C@H]([C@]1(N)C(=O)O)[C@@]2(F)C(=O)O           False
5  N[C@@]1(C(=O)O)[C@H](O)C[C@@H]2[C@H]1[C@@]2(F)C(=O)O           False
6  N[C@]1(C(=O)O)[C@H]2[C@@H](C[C@H]1OCc1cc(Cl)c(Cl)c(Cl)c1)[C@]2(F)C(=O)O            True

Check if pKi >= 8 (inclusive). Item: C[C@H](O[C@@H]1C[C@@H]2[C@H]([C@]1(N)C(=O)O)[C@@]2(F)C(=O)O)c1ccc(Cl)c(Cl)c1
True

Could you verify whether the entry N[C@]1(C(=O)O)[C@H]2[C@@H](C[C@H]1OCc1cccc(C(=O)O)c1)[C@]2(F)C(=O)O shows pKi of no less than 8?
True

Say whether N[C@]1(C(=O)O)[C@H]2[C@@H](C[C@H]1OCc1ccc(F)c(F)c1)[C@]2(F)C(=O)O shows pKi of 8 or more.
True

* * *

test-details: Concentration of compound in plasma of rat after 24 hr of oral dose 10 mg/kg
Format: ADME, organism-based
Parameters: dose 10 mg/kg, route oral
readout-type: concentration at 24 h
Give your result as the value with the unit written after it.

> print(dat)
                  compound.structure.string           readout.type  value.observed
1  N[C@]1(C(=O)O)[C@H]2[C@@H](C[C@H]1OCc1ccc3ccccc3c1)[C@]2(F)C(=O)O  concentration at 24 h       2.2 ng/mL
2  N[C@]1(C(=O)O)[C@H]2[C@@H](C[C@H]1OCc1ccc(F)c(F)c1)[C@]2(F)C(=O)O  concentration at 24 h       0.8 ng/mL
3  N[C@]1(C(=O)O)[C@H]2[C@@H](C[C@H]1OC(c1ccccc1)c1ccccc1)[C@]2(F)C(=O)O  concentration at 24 h       0.2 ng/mL

Which concentration at 24 h reading was recorded for the compound N[C@]1(C(=O)O)[C@H]2[C@@H](C[C@H]1OCc1ccc(Cl)c(Cl)c1)[C@]2(F)C(=O)O ?
2.1 ng/mL

* * *

test-details: Peak plasma concentration in rats upon oral dose of 10 mg/kg
Assay type: ADME, organism-based
Parameters: dose 10 mg/kg, route oral
conditions: rat
readout-type: log10 of Cmax (log10 of the value in ng/mL)
Transform log10 | Measure Cmax | Unit ng/mL

> print(dat)
                  compound.structure.string   readout.type  value.observed
1  N[C@]1(C(=O)O)[C@H]2[C@@H](C[C@H]1OC(c1ccccc1)c1ccccc1)[C@]2(F)C(=O)O  log10 of Cmax            1.93

Please supply log10 of Cmax for each of the following items, keeping them in order.
1. N[C@]1(C(=O)O)[C@H]2[C@@H](C[C@H]1OCc1ccc(F)c(F)c1)[C@]2(F)C(=O)O
2. N[C@]1(C(=O)O)[C@H]2[C@@H](C[C@H]1OCc1ccc(Cl)cc1)[C@]2(F)C(=O)O

2.47
2.43

I have 2 compounds here; please give me log10 of Cmax for each one.
1. N[C@]1(C(=O)O)[C@H]2[C@@H](C[C@H]1OCc1ccc(Cl)c(Cl)c1)[C@]2(F)C(=O)O
2. N[C@]1(C(=O)O)[C@H]2[C@@H](C[C@H]1OCc1ccc3ccccc3c1)[C@]2(F)C(=O)O

1: 2.97; 2: 2.57
